system: Lolium multiflorum; experiment: Pre-emergence herbicidal effect; assay type: in vivo; details: 320 g/ha, 3 weeks
observation_type: LOLMU herbicidal activity in percent (%)
Could you give me the number in %? Just the number is fine.

See these solved cases before continuing.
# compound, endpoint_value
rows = [
    ("Cc1ccc2c(c1)[C@H](Nc1ncc3c(n1)CC(C(C)C)CC3=O)[C@@H](C)C2 (some centres unmarked) [2.104]", 90),
    ("CC1(C)CC(=O)c2cnc(NC3CCOc4ccccc43)nc2C1 (racemic) [2.94]", 90),
    ("CC(=O)c1cnc(NC2CCOc3c(C)cccc32)nc1 (racemic) [1.7]", 100),
    ("O=C1CCCc2nc(N[C@@H]3CCOc4c(F)cccc43)ncc21 [2.19]", 100),
]

Next:
Exercise: Answer with the recorded LOLMU herbicidal activity in percent of CC(C)C1CC(=O)c2cnc(N[C@@H]3CCCc4ccccc43)nc2C1 (some centres unmarked) [2.102] only.
Solution: 100

* * *

system: Zea mays; assay: Pre-emergence herbicidal effect and crop plant compatibility; type: in vivo; conditions: 80 g/ha, 3 weeks
observation_type: ZEAMX herbicidal activity in percent (%)
A number alone suffices; assume %.

# compound, target_of_assay, observation_type, unit_abbreviation, endpoint_value
rows = [
    ("Cc1ccc2c(c1)[C@H](Nc1ncc3c(n1)CC(C)(C)CC3=O)[C@@H](C)C2 [2.45]", "Zea mays", "ZEAMX herbicidal activity in percent", "%", 10),
]

Exercise: Provide ZEAMX herbicidal activity in percent, recorded with Zea mays, of CC(=O)c1cnc(NC2CCOc3c(C)cccc32)nc1 (racemic) [1.7]
Solution: 0

Exercise: Please report the measured ZEAMX herbicidal activity in percent for Cc1ccc2c(c1)[C@H](Nc1ncc3c(n1)CC(C)CC3=O)[C@@H](C)C2 (stereo partly shown) [2.44] tested on Zea mays.
Solution: 10

Exercise: Enter ZEAMX herbicidal activity in percent (test system Zea mays) for CC(=O)c1cnc(N[C@@H]2CCCc3ccccc32)nc1 [1.3]
Solution: 20

Exercise: Specify the recorded ZEAMX herbicidal activity in percent for CC(=O)c1cnc(N[C@@H]2CCCc3ccccc32)nc1C [1.82] , system: Zea mays.
Solution: 0

Exercise: Quote ZEAMX herbicidal activity in percent with test system Zea mays for O=C1CCCc2nc(N[C@@H]3CCCc4ccccc43)ncc21 [2.23]
Solution: 0

Exercise: Look up Zea mays data: ZEAMX herbicidal activity in percent of CC(C)C1CC(=O)c2cnc(N[C@@H]3CCc4ccccc43)nc2C1 (stereo partly shown) [2.103] , then report it.
Solution: 0

* * *

test system: Triticum aestivum (spring); test: Pre-emergence herbicidal effect and crop plant compatibility; format: in vivo; details: 320 g/ha, 3 weeks
observation_type: TRZAS herbicidal activity in percent (%)
Form entry: value (%) — number only.

Examples with answers:
# compound, TRZAS herbicidal activity in percent / %
data = [
    ("CC(C)C1CC(=O)c2cnc(N[C@@H]3CCCc4ccccc43)nc2C1 (stereo partly shown)", 0),
    ("CC(=O)c1cnc(N[C@@H]2CCc3c(F)cccc32)nc1", 0),
    ("COc1ccc2c(c1)CCC2Nc1ncc(C(C)=O)c(C)n1 (racemic)", 0),
    ("CC(=O)c1cnc(N[C@@H]2CCc3ccccc32)nc1C", 0),
    ("Cc1ccc2c(c1)C(Nc1ncc3c(n1)CCCC3=O)CO2 (racemic)", 0),
    ("CC(=O)c1cnc(NC2CCOc3c(C)cccc32)nc1 (racemic) [1.8]", 0),
    ("CC(=O)c1cnc(N[C@@H]2CCCc3cc(F)ccc32)nc1C", 0),
    ("O=C1CC(c2ccc(F)cc2)Cc2nc(N[C@@H]3CCCc4ccccc43)ncc21 (stereo partly shown)", 20),
    ("CC(=O)c1cnc(N[C@@H]2CCCc3ccccc32)nc1", 20),
]

Attention now shifts to the item below.
Exercise: Check the records and state TRZAS herbicidal activity in percent for Cc1ccc2c(c1)[C@H](Nc1ncc3c(n1)CC(c1ccc(F)cc1)CC3=O)[C@@H](C)C2 (stereo partly shown)
Solution: 30

* * *

experiment: logp (HCOOH), physicochemical characterization; settings: HCOOH
observation_type: chromatographic logP
Quick one: just the number, no unit, thanks!

Exercise: Name the recorded chromatographic logP of the item CC(=O)c1cnc(N[C@H]2c3cc(C)ccc3C[C@@H]2C)nc1 [1.10] in your answer.
Solution: 2.99

* * *

Below, each entry is listed alongside its reported AMARE herbicidal activity in percent.
test system: Amaranthus retroflexus; assay: Pre-emergence herbicidal effect; assay type: in vivo; settings: 1280 g/ha, 3 weeks
# value in %; strip the unit string

Solved cases below.
# compound, AMARE herbicidal activity in percent (%)
measured = [
    ("CC(=O)c1cnc(NC2CCOc3ccccc32)nc1C (centres unmarked)", 100),
    ("CC(=O)c1cnc(NC2c3ccccc3CCC2C)nc1 (racemic)", 100),
    ("CC(=O)c1cnc(N[C@@H]2CCc3c(F)cccc32)nc1", 100),
    ("Cc1ccc2c(c1)[C@H](Nc1ncc3c(n1)CC(c1ccccc1F)CC3=O)[C@@H](C)C2 (some centres unmarked)", 100),
]

Now let's try a different one.
Exercise: Fill in reported AMARE herbicidal activity in percent for this entry: O=C1CC(c2ccccc2F)Cc2nc(N[C@@H]3CCCc4ccccc43)ncc21 (some centres unmarked)
Solution: 80

* * *

Entries annotated with measured post-emergence efficacy ALOMY
system: Alopecurus myosuroides; test: Post-emergence herbicidal effect; assay type: in vivo; conditions: 320 g/ha, visual scoring after about 3 weeks
Response body: numeric value in %, unit text excluded.

# compound, target_of_assay, endpoint_value
rows = [
    ("CC(=O)c1cnc(N[C@H]2c3cc(C)ccc3C[C@@H]2C)nc1C [1.26]", "Alopecurus myosuroides", 90),
]

Exercise: Find the measured post-emergence efficacy ALOMY of O=C1CCCc2nc(N[C@@H]3CCCc4c(F)cccc43)ncc21 [2.13] and report it.
Solution: 90

Exercise: Please supply the value of reported post-emergence efficacy ALOMY for the item Cc1ccc2c(c1)[C@H](Nc1ncc3c(n1)CC(C)(C)CC3=O)[C@@H](C)C2 [2.45]
Solution: 80

Exercise: Answer with the recorded post-emergence efficacy ALOMY for the compound listed here: Cc1ccc2c(c1)[C@H](Nc1ncc3c(n1)CC(C(F)(F)F)CC3=O)[C@@H](C)C2 (some centres unmarked) [2.46]
Solution: 100

Exercise: // fetch post-emergence efficacy ALOMY given entry Cc1ccc2c(c1)[C@H](Nc1ncc3c(n1)COCC3=O)[C@@H](C)C2 [2.97]
Solution: 100

* * *

test system: Echinochloa crus-galli; experiment: Post-emergence herbicidal effect; format: in vivo; conditions: 80 g/ha, visual scoring after about 3 weeks
Quick list: post-emergence efficacy ECHCG per entry.

Field: example entries. Status: answers known.
# compound, post-emergence efficacy ECHCG
data = [
    ("Cc1ccc2c(c1)[C@H](Nc1ncc3c(n1)COCC3=O)[C@@H](C)C2", "90%"),
    ("Cc1ccc2c(c1)[C@H](Nc1ncc3c(n1)CCCC3=O)[C@@H](C)C2", "90%"),
    ("Cc1cccc2c1OCC[C@H]2Nc1ncc2c(n1)CCCC2=O", "100%"),
]

# ---- query compound ----
Exercise: Hello, please tell me recorded post-emergence efficacy ECHCG for this one: O=C1CCCc2nc(N[C@@H]3CCCc4c(F)cccc43)ncc21
Solution: 90%

* * *

As shown below, each of these molecules has a reported LOLMU herbicidal activity in percent value.
tested on: Lolium multiflorum; assay: Pre-emergence herbicidal effect; assay type: in vivo; conditions: 80 g/ha, 3 weeks

Below, each entry is followed by its recorded LOLMU herbicidal activity in percent result.
# molecule, target_of_assay, LOLMU herbicidal activity in percent
data = [
    ("Cc1ccc2c(c1)[C@H](Nc1ncc3c(n1)CCCC3=O)[C@@H](C)C2 [2.43]", "Lolium multiflorum", "100%"),
    ("Cc1ccc2c(c1)[C@H](Nc1ncc3c(n1)CC(C)CC3=O)[C@@H](C)C2 (stereo partly shown) [2.44]", "Lolium multiflorum", "100%"),
]

Exercise: Give me measured LOLMU herbicidal activity in percent, please, for this molecule: O=C1CCCc2nc(N[C@@H]3CCCc4ccccc43)ncc21 [2.23]
Solution: 80%

Exercise: Dear colleague, please send me the reported LOLMU herbicidal activity in percent for CC(=O)c1cnc(N[C@H]2c3cc(C)ccc3C[C@@H]2C)nc1C [1.26] when you can.
Solution: 80%

Exercise: Look up LOLMU herbicidal activity in percent of Cc1ccc2c(c1)[C@H](Nc1ncc3c(n1)CC(C(F)(F)F)CC3=O)[C@@H](C)C2 (stereo partly shown) [2.46] and report it.
Solution: 100%

Exercise: Supply recorded LOLMU herbicidal activity in percent for Cc1ccc2c(c1)[C@H](Nc1ncc3c(n1)CCCC3=O)[C@@H](C)C2 [2.118] here.
Solution: 80%

Exercise: Give LOLMU herbicidal activity in percent for the following molecule: Cc1ccc2c(c1)[C@H](Nc1ncc3c(n1)CC(C)(C)CC3=O)[C@@H](C)C2 [2.45]
Solution: 80%
